Study Target: EPHB1 (UniProt P54762)
Sequence (P54762 whole entry, looked up): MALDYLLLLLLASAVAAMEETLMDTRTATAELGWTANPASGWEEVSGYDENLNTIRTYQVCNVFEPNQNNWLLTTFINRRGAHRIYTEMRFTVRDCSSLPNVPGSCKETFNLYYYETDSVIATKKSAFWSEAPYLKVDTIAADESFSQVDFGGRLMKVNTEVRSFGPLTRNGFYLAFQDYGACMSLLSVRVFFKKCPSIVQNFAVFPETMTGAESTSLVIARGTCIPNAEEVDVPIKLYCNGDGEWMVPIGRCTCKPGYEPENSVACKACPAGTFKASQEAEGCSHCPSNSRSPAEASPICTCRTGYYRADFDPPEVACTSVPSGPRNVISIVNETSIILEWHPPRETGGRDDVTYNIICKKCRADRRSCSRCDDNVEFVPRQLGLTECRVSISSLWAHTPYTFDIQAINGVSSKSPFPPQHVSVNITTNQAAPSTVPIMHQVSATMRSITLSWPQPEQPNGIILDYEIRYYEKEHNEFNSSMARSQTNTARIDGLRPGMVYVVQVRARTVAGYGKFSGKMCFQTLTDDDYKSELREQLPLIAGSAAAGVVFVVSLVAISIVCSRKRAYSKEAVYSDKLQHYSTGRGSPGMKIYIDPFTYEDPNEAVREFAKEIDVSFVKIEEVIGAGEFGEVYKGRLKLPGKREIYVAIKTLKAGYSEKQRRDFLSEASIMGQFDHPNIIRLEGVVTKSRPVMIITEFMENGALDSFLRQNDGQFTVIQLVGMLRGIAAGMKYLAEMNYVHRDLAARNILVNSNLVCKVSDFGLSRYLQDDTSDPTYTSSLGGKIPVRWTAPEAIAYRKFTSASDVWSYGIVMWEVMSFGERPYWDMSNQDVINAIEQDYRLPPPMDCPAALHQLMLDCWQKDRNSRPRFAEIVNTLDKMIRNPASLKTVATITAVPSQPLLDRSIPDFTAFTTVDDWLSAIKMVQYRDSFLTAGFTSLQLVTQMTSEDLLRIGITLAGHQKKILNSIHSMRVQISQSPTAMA
Method Notes: phosphorylation enrichment, bacterial display (enrichment ratio); higher = better substrate or ligand; peptides without Tyr show the background;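 further: 11-residue human phosphosite peptides and single-mutation variants displayed on the E. coli surface, counted by deep sequencing, each peptide's frequency after selection divided by its frequency in the unselected input library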;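 further: frequency after pTyr selection over input frequency; kinase dosed for 20-30% of maximal phosphorylation in three min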
// label = 1 (yes) if phosphorylation enrichment is not less than 0.5, otherwise 0 (no)

> print(dat)
                         query.sequence  discrete.label
 1         TVDASYFGGRG [ANTXR2_Y380_YF]          0 (no)
 2    IFRASYVPFAA [RBM47_Y541_G538R_YF]         1 (yes)
 3        SAGSSYSISSI [PAX5_Y179_G183S]          0 (no)
 4        KFLVGYEMLAQ [GALT_Y339_M336L]          0 (no)
 5              YEREQYADRAR [RBM4_Y355]          0 (no)
 6       SQETYYRVSNM [ABCD1_Y181_Q178E]         1 (yes)
 7      PMQLPHDSTWE [PDGFRB_Y589_Y589H]         1 (yes)
 8              RRRLIYRCQVG [NR2E3_Y81]         1 (yes)
 9        ADARMYGDLPW [PLP1_Y207_V209D]         1 (yes)
10              VDYQPYRKHKY [TEX37_Y28]          0 (no)
11             REDIFYTSKLW [AKR1C2_Y81]         1 (yes)
12       ISISPYPAILH [IFT80_Y588_T586S]          0 (no)
13        LFLALYTGLVR [PIGB_Y402_H407R]         1 (yes)
14             NTGDYYDLYGG [PTPN11_Y63]         1 (yes)
15     FDEFRYRSFIK [CFTR_Y517_V520F_YF]          0 (no)
16           FGSVMYEFVGK [SLC18A1_Y251]         1 (yes)
17                          VHVEVYDRPSP         1 (yes)
18            SVCPDYDLCSV [SQSTM1_Y148]         1 (yes)
19     FSCLPYRRLAY [SLC52A2_Y305_G306R]         1 (yes)
20             LVKDGYQMAQP [CSF1R_Y873]          0 (no)
21               QTPVLYAMLDH [MPZ_Y220]         1 (yes)
22               EFNLMYDGTKE [IRF6_Y97]          0 (no)
23  TRFDEYLEVTK [MAP1A_Y2217_H2214Y_YF]         1 (yes)
24         ILTLKYPIELG [ACTA1_Y71_H75L]         1 (yes)
25             EVEPRYVVLYD [ERCC4_Y577]         1 (yes)
26                          PGVNYYFQVSA         1 (yes)
27    SGGLDYGMVGG [TNRC6B_Y1382_M1380L]         1 (yes)
28             TRDVNYGWIIR [MT-CYB_Y75]         1 (yes)
29         PFADPYFDFEI [ZC3H18_Y371_YF]         1 (yes)
